Sourced from patent US11986471B2

Would you kindly list pIC50 for each of these molecules?
- Test system: HAP1 MTAP-intact
- protocol.details: SDMA in-cell western assay, HAP1 MTAP-intact cell line
- Format: cell-based
- condition.set: Homo sapiens
pIC50: −log10 of the molar value.

GET /values?readout=pIC50&item= Cc1c(OCc2cn[nH]c2)ccc2c1CCN(C[C@@H](O)CNC(=O)c1ccnc(NC3CCC3)c1)C2 [Compound 254] 5.00 to 6.00

GET /values?readout=pIC50&item= CC(=O)N1CCC(Nc2ccnc(C(=O)NC[C@H](O)CN3CCc4cc(OCc5cnco5)ccc4C3)c2)CC1 [Compound 507] ≤ 5.00

GET /values?readout=pIC50&item= CC(=O)N1CCN(c2cc(C(=O)NC[C@H](O)CN3CCc4cc(OCc5cnco5)ccc4C3)cc(NC3CCC3)n2)CC1 [Compound 497] 5.00 to 6.00

GET /values?readout=pIC50&item= CC(=O)N1CCC(Nc2cc(C(=O)NC[C@H](O)CN3CCc4cc(OCc5ocnc5C)c(F)cc4C3)cc(N3CCCCC3)n2)CC1 [Compound 623] 5.00 to 6.00

GET /values?readout=pIC50&item= CS(=O)(=O)N1CCC(Nc2cc(C(=O)NC[C@H](O)CN3CCc4cc(OCc5cnco5)ccc4C3)ccn2)CC1 [Compound 430] ≤ 5.00

GET /values?readout=pIC50&item= Cc1c(OCc2ccnn2C)ccc2c1CCN(C[C@@H](O)CNC(=O)c1ccnc(NC3CCCC3)c1)C2 [Compound 277] ≤ 5.00

GET /values?readout=pIC50&item= O=C(NC[C@H](O)CN1CCc2c(ccc(OCc3cnco3)c2Br)C1)c1cc(NC2CCC2)ncn1 [Compound 361] ≤ 5.00

GET /values?readout=pIC50&item= CC(=O)N1CCC(Nc2cc(C(=O)NC[C@H](O)CN3CCc4cc(OCc5ocnc5C)ccc4C3)cc(N(C)C3CCC3)n2)CC1 [Compound 628] 5.00 to 6.00

---

- Tested on: HAP1 MTAP-intact
- protocol.details: SDMA in-cell western assay, HAP1 MTAP-intact cell line
- Assay type: cell-based
- condition.set: Homo sapiens
pIC50: −log10 of the molar value.
Would you kindly list pIC50 for each of these molecules?

GET /values?readout=pIC50&item= CC(=O)N1CCC(Nc2cc(C(=O)NC[C@H](O)CN3CCc4cc(OCc5cnn[nH]5)ccc4C3)ncn2)CC1 ≤ 5.00

GET /values?readout=pIC50&item= Cc1c(OCc2cnco2)ccc2c1CCN(C[C@@H](O)CNC(=O)c1ccc3c(c1)CCN(C(=O)c1ccc(Br)cc1)C3)C2 ≤ 5.00

GET /values?readout=pIC50&item= Cc1ncoc1COc1ccc2c(c1Cl)CCN(C[C@@H](O)CNC(=O)c1ccnc(NC3CCC3)c1)C2 ≤ 5.00

GET /values?readout=pIC50&item= CC(=O)N1CCC(Nc2cc(C(=O)NC[C@H](O)CN3CCc4c(ccc(OCc5cnco5)c4C)C3)ncn2)CC1 ≤ 5.00

GET /values?readout=pIC50&item= Cc1ncoc1COc1ccc2c(c1)CCN(C[C@@H](O)CNC(=O)c1ccnc(NC3CCN(C(=O)C4CC4)CC3)c1)C2 5.00 to 6.00

GET /values?readout=pIC50&item= CCC(=O)N1CC(Nc2cc(C(=O)NC[C@H](O)CN3CCc4c(ccc(OCc5cnco5)c4C)C3)ccn2)C1 ≤ 5.00

GET /values?readout=pIC50&item= Cc1ncoc1COc1ccc2c(c1)CCN(C[C@@H](O)CNC(=O)c1cc(NC3CCN(C(=O)C(C)(C)C)CC3)ncn1)C2 5.00 to 6.00

GET /values?readout=pIC50&item= CC(=O)N1[C@@H]2CC[C@H]1C[C@H](Nc1cc(C(=O)NC[C@H](O)CN3CCc4cc(OCc5ocnc5C)ccc4C3)ccn1)C2 ≤ 5.00

GET /values?readout=pIC50&item= O=C(NC[C@H](O)CN1CCc2cc(OCc3cnco3)ccc2C1)c1ccnc(NC2CCN(C(=O)C3CCC3)CC2)c1 5.00 to 6.00

GET /values?readout=pIC50&item= O=C(NC[C@H](O)CN1CCc2c(ccc(OCc3cnco3)c2Cl)C1)c1ccnc(NC2CC3(C2)CC3(F)F)c1 (stereo partly drawn) ≤ 5.00

GET /values?readout=pIC50&item= O=C(NC[C@H](O)CN1CCc2c(ccc(OCc3cnco3)c2Cl)C1)c1cncc(NC2CCOC2)c1 (stereo partly drawn) ≤ 5.00

GET /values?readout=pIC50&item= CC(=O)N1CCC(Nc2cc(C(=O)NC[C@H](O)CN3CCc4c(ccc(OCc5cn[nH]c5)c4C)C3)ncn2)CC1 5.00 to 6.00

---

- target.or.test.system: PRMT5 (Homo sapiens)
- Construct: purchased Viva (custom protein)
- Sequence (O14744 whole entry): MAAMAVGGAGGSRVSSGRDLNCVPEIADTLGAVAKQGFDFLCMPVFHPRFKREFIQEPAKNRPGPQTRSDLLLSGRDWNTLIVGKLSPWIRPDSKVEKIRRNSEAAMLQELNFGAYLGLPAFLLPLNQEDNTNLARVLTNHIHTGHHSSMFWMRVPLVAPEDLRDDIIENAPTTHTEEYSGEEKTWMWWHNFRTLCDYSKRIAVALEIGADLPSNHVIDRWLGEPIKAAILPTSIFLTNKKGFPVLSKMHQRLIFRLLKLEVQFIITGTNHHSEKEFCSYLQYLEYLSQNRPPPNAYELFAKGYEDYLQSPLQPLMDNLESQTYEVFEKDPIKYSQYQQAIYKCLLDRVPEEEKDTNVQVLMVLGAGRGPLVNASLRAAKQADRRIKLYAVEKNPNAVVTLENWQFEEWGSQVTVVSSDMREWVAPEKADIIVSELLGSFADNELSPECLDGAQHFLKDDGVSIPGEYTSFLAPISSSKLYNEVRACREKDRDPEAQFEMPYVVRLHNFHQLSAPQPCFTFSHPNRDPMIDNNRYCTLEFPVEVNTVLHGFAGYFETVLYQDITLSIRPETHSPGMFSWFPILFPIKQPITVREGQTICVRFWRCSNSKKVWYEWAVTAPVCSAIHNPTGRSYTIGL
- Sequence (Q9BQA1 whole entry partner): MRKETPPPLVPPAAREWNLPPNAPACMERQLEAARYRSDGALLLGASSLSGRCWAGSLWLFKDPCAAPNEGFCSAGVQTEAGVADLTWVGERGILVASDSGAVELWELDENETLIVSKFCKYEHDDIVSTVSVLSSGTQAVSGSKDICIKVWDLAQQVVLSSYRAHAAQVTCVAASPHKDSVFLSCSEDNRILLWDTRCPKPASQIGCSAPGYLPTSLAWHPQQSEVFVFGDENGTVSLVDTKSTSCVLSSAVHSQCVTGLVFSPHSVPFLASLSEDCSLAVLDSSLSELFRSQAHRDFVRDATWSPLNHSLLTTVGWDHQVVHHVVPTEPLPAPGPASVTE
- protocol.details: PRMT5 IC50 assay with no cofactor
- Assay type: biochemical
readout.kind: IC50

GET /values?readout=IC50&system=PRMT5 (Homo sapiens)&item= O=C(NC[C@H](O)CN1CCc2cc(OCc3cnco3)ccc2C1)c1cc(NC2CCC2)ccn1 0.5 to 5 µM

GET /values?readout=IC50&system=PRMT5 (Homo sapiens)&item= Cc1ncoc1COc1ccc2c(c1C)CCN(C[C@@H](O)CNC(=O)c1cc(NC3COC3)nc(N3CCN(C(C)(C)C)CC3)n1)C2 ≥ 5 µM

GET /values?readout=IC50&system=PRMT5 (Homo sapiens)&item= CC(=O)N1CCN(c2cc(C(=O)NC[C@H](O)CN3CCc4cc(OCc5ocnc5C)c(F)cc4C3)cc(NC3CCC3)n2)CC1 0.5 to 5 µM

GET /values?readout=IC50&system=PRMT5 (Homo sapiens)&item= CCCN(C)c1cc(C(=O)NC[C@H](O)CN2CCc3cc(OCc4ocnc4C)ccc3C2)cc(NC2CCC2)n1 ≥ 5 µM

---

- target.or.test.system: PRMT5 (Homo sapiens)
- Construct: purchased Viva (custom protein)
- protocol.details: PRMT5 IC50 assay with no cofactor
- Assay type: biochemical
Would you kindly list IC50 for each of these molecules?

GET /values?readout=IC50&item= CCN1CCN(c2nc(NC3COC3)cc(C(=O)NC[C@H](O)CN3CCc4cc(OCc5ocnc5C)ccc4C3)n2)CC1 0.5 to 5 µM

GET /values?readout=IC50&item= O=C(NC[C@H](O)CN1CCc2cc(OCc3cnco3)ccc2C1)c1ccnc(NC2CN(C(=O)C3CC3)C2)c1 0.5 to 5 µM

GET /values?readout=IC50&item= Cc1c(OCc2cnco2)ccc2c1CCN(C[C@@H](O)CNC(=O)c1ccnc(NC3CC4(CC4)C3)c1)C2 0.5 to 5 µM

GET /values?readout=IC50&item= O=C(NC[C@H](O)CN1CCc2cc(OCc3cnco3)ccc2C1)c1ccnc(NC2CCN(C(=O)C3CCC3)CC2)c1 0.5 to 5 µM

GET /values?readout=IC50&item= Cc1ncoc1COc1ccc2c(c1)CCN(C[C@@H](O)CNC(=O)c1cc(NC3COC3)nc(N3CCN(C(=O)C(C)C)CC3)n1)C2 0.5 to 5 µM

GET /values?readout=IC50&item= Cc1ncoc1COc1ccc2c(c1C)CCN(C[C@@H](O)CNC(=O)c1cc(NC3CCC3)nc(N3CCN(C(C)C)CC3)c1)C2 0.5 to 5 µM

GET /values?readout=IC50&item= CC(=O)N1CC(Nc2cc(C(=O)NC[C@H](O)CN3CCc4c(ccc(OCc5cnco5)c4C)C3)ccn2)C1 ≥ 5 µM

GET /values?readout=IC50&item= CC(=O)N1C[C@@H]2[C@H](C1)[C@H]2Nc1cc(C(=O)NC[C@H](O)CN2CCc3cc(OCc4ocnc4C)ccc3C2)ncn1 ≥ 5 µM

GET /values?readout=IC50&item= Cn1nccc1COc1ccc2c(c1)CCN(C[C@@H](O)CNC(=O)c1cc(NC3CCC3)ccn1)C2 ≥ 5 µM

GET /values?readout=IC50&item= CC(=O)N1CCC(Nc2cc(C(=O)NC[C@H](O)CN3CCc4cc(OCc5ocnc5C)ccc4C3)cc(N3CCN(C)CC3)n2)CC1 0.05 to 0.5 µM

GET /values?readout=IC50&item= CC(=O)N1CCC(Nc2cc(C(=O)NC[C@H](O)CN3CCc4c(ccc(OCc5ocnc5C)c4C)C3)cc(N3CCN(C)CC3)n2)CC1 0.5 to 5 µM

GET /values?readout=IC50&item= CC(=O)N1CCC(Nc2cc(C(=O)NC[C@H](O)CN3CCc4cc(OCc5cnco5)ccc4C3)ccn2)CC1 0.5 to 5 µM

GET /values?readout=IC50&item= Cc1c(OCc2cnco2)ccc2c1CCN(C[C@@H](O)CNC(=O)c1cc(NC3CCOCC3)ccn1)C2 ≥ 5 µM

GET /values?readout=IC50&item= Cc1c(OCc2cnco2)ccc2c1CCN(C[C@@H](O)CNC(=O)c1cc(NC3CN(C(=O)C4CCC4)C3)ncn1)C2 ≥ 5 µM

GET /values?readout=IC50&item= Cc1ncoc1COc1ccc2c(c1)CCN(C[C@@H](O)CNC(=O)c1cc(NC3CCC3)nc(N3CCN(C(C)C)CC3)c1)C2 0.5 to 5 µM

GET /values?readout=IC50&item= COc1ccc(C(=O)N2CCc3cc(C(=O)NC[C@H](O)CN4CCc5c(ccc(OCc6cnco6)c5C)C4)ccc3C2)cc1 0.5 to 5 µM

GET /values?readout=IC50&item= CC(C)(C)C(=O)N1CCC(Nc2cc(C(=O)NC[C@H](O)CN3CCc4cc(OCc5cnco5)ccc4C3)ccn2)CC1 0.5 to 5 µM

GET /values?readout=IC50&item= CC(=O)N1CCC(Nc2cccc(C(=O)NC[C@H](O)CN3CCc4c(ccc(OCc5cnco5)c4C)C3)c2)C1 (stereo partly shown) ≥ 5 µM

GET /values?readout=IC50&item= CC(=O)N1CCC(Nc2cc(C(=O)NC[C@H](O)CN3CCc4cc(OCc5ocnc5C)c(F)cc4C3)cc(N3CCCCC3)n2)CC1 0.05 to 0.5 µM

GET /values?readout=IC50&item= CC(C)CC(=O)N1CCC(Nc2cc(C(=O)NC[C@H](O)CN3CCc4c(ccc(OCc5cnco5)c4Cl)C3)ccn2)CC1 0.5 to 5 µM

GET /values?readout=IC50&item= Cc1ncoc1COc1ccc2c(c1C)CCN(C[C@@H](O)CNC(=O)c1cc(NC3COC3)nc(N3CCN(C(C)C)CC3)n1)C2 ≥ 5 µM

GET /values?readout=IC50&item= O=C(NC[C@H](O)CN1CCc2cc(OCc3cn[nH]c3)cc(F)c2C1)c1ccnc(NC2CCC2)c1 0.5 to 5 µM
